Experiment: Population PK analysis of plasma naldemedine concentrations (NONMEM, 2-compartment model)
Type: in vivo, human
Settings: human, plasma, oral, 0.2 mg, 1314V9231_1315V9232 (Phase 3), 0.2 mg; read-out: Empirical Bayesian-estimated AUCss, Geometric Mean
Experimental: A population PK model was developed with pooled naldemedine concentrations from healthy subjects, patients with chronic non-cancer pain and OIC, and cancer patients with OIC as described in Table I. Blood sampling times for PK analysis in each study are shown in Supplemental Table S1. […] The bioanalytical methods for determination of concentrations of naldemedine and its metabolites in human plasma were validated with the lower limit of quantification (LLOQ) being 0.01 ng/ml for naldemedine ([11]). […]
Observable: AUC (ng·h/mL)
Quick reminder: number only, in ng·h/mL, skip the unit.

Give the measured AUC for CC(C)(NC(=O)C1=C(O)[C@@H]2Oc3c(O)ccc4c3[C@@]23CCN(CC2CC2)[C@H](C4)[C@]3(O)C1)c1nc(-c2ccccc2)no1
25.1

====

test: Population PK analysis of plasma naldemedine concentrations (NONMEM, 2-compartment model); format: in vivo, human; conditions: human, plasma, oral, 0.2 mg, 1107V9221 (Phase 2b), 0.2 mg; read-out: Empirical Bayesian-estimated AUCss, Median
Observable: AUC (ng·h/mL)
# number only, unit ng·h/mL dropped from output

State its AUC for this compound: CC(C)(NC(=O)C1=C(O)[C@@H]2Oc3c(O)ccc4c3[C@@]23CCN(CC2CC2)[C@H](C4)[C@]3(O)C1)c1nc(-c2ccccc2)no1
20.2

====

test: Population PK analysis of plasma naldemedine concentrations (NONMEM, 2-compartment model); type: in vivo, human; settings: human, plasma, oral, 0.2 mg, 1107V9221 (Phase 2b), 0.2 mg; read-out: Empirical Bayesian-estimated AUCss, Mean
Observable: AUC
# do not omit the unit; it follows the number

Given CC(C)(NC(=O)C1=C(O)[C@@H]2Oc3c(O)ccc4c3[C@@]23CCN(CC2CC2)[C@H](C4)[C@]3(O)C1)c1nc(-c2ccccc2)no1 [naldemedine] , respond with its AUC.
22.1 ng·h/mL

====

assay: Population PK analysis of plasma naldemedine concentrations (NONMEM, 2-compartment model); format: in vivo, human; details: both sexes, human, plasma, oral, 0.2 mg, reference population, 0.2 mg once daily; read-out: typical AUCss
Observable: AUC (ng·h/mL)
Quick note: give the figure in ng·h/mL, leave out the unit.

Name the recorded AUC of the item CC(C)(NC(=O)C1=C(O)[C@@H]2Oc3c(O)ccc4c3[C@@]23CCN(CC2CC2)[C@H](C4)[C@]3(O)C1)c1nc(-c2ccccc2)no1 in your answer.
22

====

assay: Population PK analysis of plasma naldemedine concentrations (NONMEM, 2-compartment model); type: in vivo, human; settings: human, plasma, oral, 0.4 mg, 1107V9221 (Phase 2b), 0.4 mg; read-out: Empirical Bayesian-estimated AUCss, Median
Observable: AUC (ng·h/mL)
Give the number; ng·h/mL is assumed, so skip it.

Please report AUC for the following compound: CC(C)(NC(=O)C1=C(O)[C@@H]2Oc3c(O)ccc4c3[C@@]23CCN(CC2CC2)[C@H](C4)[C@]3(O)C1)c1nc(-c2ccccc2)no1
38.2
